Taken from patent EP2140864A2.

System: Male Sprague-Dawley rats
Assay: Rat Forced Swim Test (FST)
Assay type: in vivo
Conditions: 10 mg/kg p.o., single administration, 1 hr. before test
experimental_endpoint: Immobility
// keep it numeric: no unit symbol after the value

Below: 2 molecules and their reported Immobility.
Cc1ccc(Nc2cc(N3CCCCC3)nc(N3CCN(c4ncccc4C(F)(F)F)CC3)n2)cc1 | 49
O=C1C(=Nc2cc(Cl)cc(Cl)c2)c2ccccc2N1c1ccccc1 | 42

Here is another molecule to look at.
Given the molecule COC[C@@H]1[C@@H](c2ccccc2)OCCN1c1nc(Nc2ccc(C)cc2)cc(N2CCCCC2)n1 , what is its reported Immobility?
48
